Some molecules, each annotated with its measured melting point.

Memo: "CC(C)c1nc(CCOC2=CCCCCCCCC2)n(C)c1Sc1cc(Cl)cc(Cl)c1" , reported melting point: 94 to 96 °C

---

Some compounds, each annotated with its measured melting point.

Study these solved cases before continuing.
                                   compound  reported_metric       measured
0                 Cc1c(CO)ncc(Br)c1N1CCCCC1    melting point    80 to 81 °C
1  CCN(CCCN1c2ccccc2N(C)C(=O)c2ccc(C)nc21)C(C)C    melting point  104 to 105 °C
2  COC(=O)c1ccc2oc(CCCc3cc4cc(C(=O)OC)ccc4o3)cc2c1    melting point    87 to 88 °C
3  COc1cccc(OC)c1-c1cc2c(ccn2C)c2c1C(=O)NC2=O    melting point  285 to 288 °C
4  CC1SC(=O)NN=C1c1cccc([N+](=O)[O-])c1 (stereo unspecified)    melting point  169 to 172 °C
5  O=C(O)C(c1ccc(Cl)cc1)C1CC1 (stereo unspecified)    melting point    95 to 96 °C
6  N#Cc1cccc(C(=O)Nc2cccc(-n3nc(C(F)(F)F)cc3C(F)(F)F)c2)c1    melting point  160 to 161 °C
7              Oc1ccc2cc(CNCc3ccccc3)ccc2c1    melting point  120 to 122 °C
8  O=C(O)C1Cc2cc3c(=O)c4c(Cl)cccc4oc3c(Cl)c2O1 (stereo unspecified)    melting point  291 to 294 °C
9  CCCCCCC(C(=O)N1CCC[C@H]1C(=O)O)n1cnc2cc(-c3ccccc3-c3nn[nH]n3)ccc21 (stereo partly specified)    melting point  145 to 150 °C

Memo: "O=C(c1cccc2nc3n(c12)CCCN3c1ccc(Cl)cc1Cl)N1CC(O)C1" , reported melting point: 257 to 258 °C

Memo: COP1(=O)CC(O)C(Cl)C1 (stereo unspecified) , reported melting point: 82 °C

Memo: "CC(=O)NC[C@H]1CN(c2ccc(N3CCC(O)(CNC4CC4)CC3)c(F)c2)C(=O)O1" , reported melting point: 160 to 162 °C

Memo: COc1cc(-c2cnc3[nH]cc(C(=O)NC4CCCOC4)c3n2)cc(OC)c1OC (stereo unspecified) , reported melting point: 191 to 192 °C

Memo: "CC(C)(C)c1ccc(C=NOCCOc2ccc(C(=O)O)c(OCc3ccc(C(F)(F)F)cc3)c2)cc1" , reported melting point: 164 to 165 °C

Memo: CC(Cc1c[nH]c2ccccc12)NC(=O)C=C1CCC(c2cccc(F)c2)(N(C)C)CC1 (stereo unspecified) , reported melting point: 163 to 166 °C

Memo: CC(=O)OC1OC(CF)C(OC(C)=O)C1OC(C)=O (stereo unspecified) , reported melting point: 98 to 101 °C

Memo: "O=S1(=O)CCCS(=O)(=O)N1F" , reported melting point: 171 to 172 °C

Memo: "CCCCCCCCSc1ccc(C=Cc2ccc([N+](=O)[O-])cc2)cc1" , reported melting point: 53 °C

Memo: "COc1ccc(-c2[nH]ccc2S(=O)(=O)C(F)(F)F)cc1" , reported melting point: 138 to 140 °C

Memo: "CC(C)Oc1ccc2nc[nH]c(=O)c2c1" , reported melting point: 206 to 208 °C

---

Some molecules, each annotated with its measured melting point.

Study these solved cases before continuing.
>>> print(df.to_string())
                                   molecule       measured
0              COc1cc2ccc(C)cc2c(C(C)C)c1OC    62 to 63 °C
1  NC(=S)c1cnn(-c2c(Cl)cc(C(F)(F)F)cc2Cl)n1  214 to 218 °C
2                          CC(=O)c1sccc1CBr    62 to 64 °C

Memo: "Cc1cc(NC(=O)OC(C)(C)C)c(N)cc1-c1ccccc1" , reported melting point: 122 °C

Memo: "Cc1ccc(-c2nc(COc3ccc(CCCCn4ccnc4)cc3)co2)o1" , reported melting point: 91 to 92 °C

Memo: CCNC(=O)c1c(F)cccc1S(=O)C(C)(C)C (stereo unspecified) , reported melting point: 114 to 116 °C

---

reported metric: melting point

Study these solved cases before continuing.
In [3]: df
Out[3]:
                                   compound  reported_metric       measured
0  C[C@H](C#Cc1ccc(Cc2cc3ccccc3s2)s1)N(O)C(N)=O    melting point  157 to 159 °C
1  O=C(C(c1ccccc1)n1cnc2[nH]ncc2c1=S)N1CCCCCC1 (stereo unspecified)    melting point       > 230 °C
2                      Clc1cnc(Sc2cccs2)nc1    melting point          65 °C
3   Cc1ccccc1Oc1cccc(CC(=O)O)c1[N+](=O)[O-]    melting point  158 to 160 °C
4                 COc1cccc(N(C)CCNC(C)=O)c1    melting point    69 to 71 °C

Now look at this entry.
Memo: "Cc1cn(-c2cc(Br)c(N)c(C(F)(F)F)c2)c(C)n1" , reported melting point: 149 °C

---

reported metric: melting point

Study these solved cases before continuing.
>>> df
                                   compound       measured
0  CCOC(=O)CN(CC(=O)OCC)Cc1ccc2cc(N)c3ccc(CN(CC(=O)OCC)CC(=O)OCC)nc3c2n1  137 to 139 °C
1        O=C(O)c1ccnc2[nH]c(CCc3ccccc3)cc12       > 300 °C
2             CN(C)C=C1C(=O)OC(=O)c2ccccc21  137 to 140 °C

Memo: O=C(O)c1cn(C2CC2)c2nc(N3CCC(c4ccccn4)C3)c(F)cc2c1=O (centres undefined) , reported melting point: 203 to 204 °C

Memo: "C=C(c1cc(F)ccc1OCc1c(Cl)cccc1Cl)n1ccnc1" , reported melting point: 108 to 110 °C

Memo: "Nc1nc(-c2ccc(CCN3CCN(c4cccc5ccccc45)CC3)cc2)cs1" , reported melting point: 274 to 277 °C

---

Some compounds, each annotated with its measured melting point.

>>> print(df.to_string())
                                   compound       measured
0                  Nc1c(F)cc(Cn2ccnc2S)cc1F  181 to 184 °C
1           O=S(=O)(c1ccc(F)cc1)c1ccc(S)cc1         116 °C
2  c1ccc(OCCSCc2nnc(-c3ccc(OCCCCN4CCSCC4)cc3)o2)cc1          58 °C
3  CN1CCN(CCCN(C)C(=O)Cn2c(-c3cccc(Cl)c3)nc3cccnc32)CC1  114 to 117 °C
4  O=C(Nc1ccc2[nH]c(=O)oc2c1)C(=O)N1CCC(Cc2cccc(F)c2)CC1  215 to 217 °C

Memo: "C[C@@H](C(=O)OC(C)(C)C)N(Cc1ccccc1)S(=O)(=O)c1ccc2c(Cl)cnc(Cl)c2c1" , reported melting point: 92 to 96 °C

Memo: "Cc1sc2nc(N)[nH]c(=O)c2c1-c1ccc(F)cc1" , reported melting point: 360 to 362 °C

Memo: "Cc1oc(-c2ccc(-c3ccc(-c4nc(CCO)c(C)o4)cc3)cc2)nc1CCO" , reported melting point: 134 to 135 °C

Memo: "CS(=O)(=O)c1ccc(-c2nc(C(F)(F)F)[nH]c2-c2ccc3ccccc3c2)cc1" , reported melting point: 228 to 230 °C

Memo: "Cc1cc(OCc2ccccc2)nc(S(C)(=O)=O)n1" , reported melting point: 57 to 60 °C

Memo: "CC(C)(C)c1cc(SC[Si](C)(C)C)cc(C(C)(C)C)c1O" , reported melting point: 100 to 101 °C

Memo: "CC(=O)Nc1cc(NS(=O)(=O)CCl)c(Cl)cc1F" , reported melting point: 210 °C

Memo: Cc1cc(C)cc(C(OC(C)C(c2ccccc2)c2ccccc2)N(C)C(=O)c2ccccc2)c1 (stereo unspecified) , reported melting point: 89 to 91 °C

Memo: "C#CC[C@H](c1nc2cc(Cl)ccc2c(=O)n1Nc1ccccc1)N(CCCN)C(=O)c1ccc(C)c(F)c1F" , reported melting point: 175 to 180 °C

Memo: CCOC(=O)C1C(=O)CC(C)(O)C(C(=O)OCC)C1c1ccc2c(C)c(C)oc2c1 (stereo unspecified) , reported melting point: 183 to 185 °C

---

Some compounds, each annotated with its measured melting point.

Study these solved cases before continuing.
In [3]: df
Out[3]:
                                   compound       measured
0  CCCCN(CCCC)CCCOc1ccc(S(=O)(=O)c2c(C(C)C)n(C)c3ccccc23)cc1          90 °C
1  COc1cc(Br)c2oc(-c3ccc(OC)c(C(F)(F)F)c3)nc2c1  183 to 185 °C
2  CC(C)=C1C(=O)Nc2cc3[nH]c(-c4ccncc4)nc3cc21       > 300 °C
3   OC[C@@H](O)[C@@H](O)[C@H](O)[C@H](O)CCl  125 to 127 °C
4  CCn1cc(S(=O)(=O)NC(=O)c2cn3cc(C(F)(F)F)cc(Cl)c3n2)c(Cl)n1  184 to 185 °C
5            CS(=O)(=O)Oc1cccc2c1C(=O)OC2=O  134 to 140 °C
6  COc1ccc(NCC2CCn3c(nc4ccccc43)S2)cc1 (stereo not given)  155 to 157 °C
7      Cc1cc(CCCOc2c(Cl)cc(C(=O)O)cc2Cl)on1  156 to 157 °C

Memo: "COn1c(Br)c(C#N)c(Br)c1-c1ccc(Cl)cc1" , reported melting point: 195 to 197 °C

Memo: "OCc1cc2ccccc2c(-c2ccccc2)c1CO" , reported melting point: 150 °C
